- Tested on: SARS-CoV-2
- CONDITION_INFO: Table 5, further results of Examples 1 and 2
TEST_READOUT: pIC50: -log10 of IC50
Quick one: just the number, no unit, thanks!

COMPOUND: FC(F)(F)Oc1ccc2nc(-c3ccc(OCCOCCOc4ccc(-c5nc6ccc(OC(F)(F)F)cc6[nH]5)nc4)cn3)[nH]c2c1 [AI-10-49]
TARGET_SYSTEM: SARS-CoV-2
TEST_READOUT: pIC50: -log10 of IC50
ASSAY_RESULT: 6.72

Which pIC50: -log10 of IC50 is reported for this compound? NC(=NC1C2CC3CC(C2)CC1C3)Nc1ccc(I)cc1 (centres unmarked) [IPAG] 5.22

Try this compound next: CCS(=O)(=O)N(Cc1cccnc1)c1cccc(-c2ccc(C#N)cc2)c1 [CBiPES] 4.77

Try this compound next: CCOC(=O)c1ncc2[nH]c3ccc(OCc4ccccc4)cc3c2c1COC.Cl [ZK-93423] 5.87

###

- Tested on: SARS-CoV-2
- ASSAY_METHOD_TEXT: microbe, parasite or virus in culture
- CONDITION_INFO: Severe acute respiratory syndrome coronavirus 2, Caco-2, read-out: IC50: concentration of 50% inhibition of virus infection, Table 5, further results of Examples 1 and 2; […]
TEST_READOUT: pIC50
pIC50 here: minus log base 10 of the concentration, concentration in moles per litre.

Please tell me: pIC50 of COC(=O)C[C@](O)(CCC(C)(C)O)C(=O)O[C@@H]1C(OC)=C[C@]23CCCN2CCc2cc4c(cc2[C@H]13)OCO4 [Harringtonine] , system SARS-CoV-2? 4.72

###

- Tested on: SARS-CoV-2
- CONDITION_INFO: 10 µM
# label = true if % Inh. (% Inhibition of SARS-CoV-2) < 90% else false

COMPOUND: CN([C@@H](Cc1ccc(OS(=O)(=O)c2cccc3cnccc23)cc1)C(=O)N1CCN(c2ccccc2)CC1)S(=O)(=O)c1cccc2cnccc12 [KN-62]
DISCRETE_LABEL: false

COMPOUND: CC(C)(N)c1cc(C(=O)N[C@@H]2CCc3ccc(Oc4ccnc5c4CCC(=O)N5)cc3C2)cc(C(F)(F)F)c1 [ML-786]
DISCRETE_LABEL: false

COMPOUND: O=C1NC(=O)c2cc(Nc3ccc(F)cc3)c(Nc3ccc(F)cc3)cc21 [CGP-53353]
DISCRETE_LABEL: true

COMPOUND: CCOc1ccc(Nc2nc(-c3c(C)nc4ccccn34)cs2)cc1 [JK-184]
DISCRETE_LABEL: true

COMPOUND: Fc1ccc(Cl)cc1-c1nc(Nc2ccncc2)c2nccnc2n1 [SD-208]
DISCRETE_LABEL: true

COMPOUND: CCN1/C(=C/C(C)=O)Sc2ccc(OC)cc21 [TG003]
DISCRETE_LABEL: true

Answer whether the compound C[C@]12CC[C@H]3[C@@H](CC[C@]4(O)C[C@@H](O)CC[C@]34C=O)[C@@]1(O)CC[C@@H]2C1=CC(=O)OC1 [Strophantidin] has % Inh. (% Inhibition of SARS-CoV-2) strictly less than 90% true

Try this compound next: CC[C@@]1(O)C(=O)OCc2c1cc1n(c2=O)Cc2cc3c(N)cccc3nc2-1 [9-aminocamptothecin] true

Hello, the source for this data is patent US20230126310A1, in case you need it.
